test: yeast display, Sf9 membrane polyspecificity reagent, FACS + sequencing; frameworks hold sequencing errors
measured_property: polyreactivity (PSR sort gate)

QVQLVESGGGLVQAGGSLRLSSAASGLNFYWYAMGWSRQAPGKERELVAAISTAGSTNYADSVKGRFTISRDNAKNTVYLQMISLKPEDTAVYYCNARIAYRYSNYGYWGQGTQVTVSS; low polyreactivity
QFQLVESGGGLVQAGGSLRLSCAASGLTFSWYVMGWYRQAPGKERELVAAITNGGNTNYADSVKGRFTISRDNAKNTVYLQMNCLKPEDTAVYYCAARDPYTWPRSGSGYYEFDYWVQGTQVTVSS; low polyreactivity
QDQRVDSGGGLVQAGGSLRLSCAASGSNFQWNAMGSYRHATGKERELVAAISGTGGNTYYADSVKGRFTISRDNAKNTVYLQMNSLKREDTAVYYCNTDYGEYYSWYLQWWYIPFDYWGQGTQVTVSS; low polyreactivity
